Recorded measurements of inhibition at 1.1 µM, one per entry
Molecular target: HIV-1 protease (Human immunodeficiency virus type 1 group M subtype B, UniProt P04585)
Construct: The protease (or proteinase), consisting of only 99 amino acids, is among the smallest enzymes known
Test: In vitro HIV protease inhibitory assay (HIV Protease FITC Assay)
Type: biochemical
Conditions: HIV-1 Dose 1.100 uM; read-out: HIV-1 Protease % Inhib

- compound: "CCC(Cc1ccccc1)c1cc(O)c(C(c2cccc(NC(=O)[C@H](Cc3cn(S(=O)(=O)c4ccc(C)cc4)cn3)NC(=O)OC(C)(C)C)c2)C2CC2)c(=O)o1 (stereo partly shown) [Example 222]"
  target-or-system: "HIV-1 protease (Human immunodeficiency virus type 1 group M subtype B, UniProt P04585)"
  units-of-measure: "%"
  comparison-symbol: "="
  inhibition at 1.1 µM: 75.8
- compound: "C=CC(C1=C(O)CC2(CCOCC2)OC1=O)c1ccccc1 (stereo not shown) [Example 121]"
  target-or-system: "HIV-1 protease (Human immunodeficiency virus type 1 group M subtype B, UniProt P04585)"
  units-of-measure: "%"
  comparison-symbol: "<"
  inhibition at 1.1 µM: 10
- compound: "CCC(Cc1ccccc1)c1cc(O)c(C(c2cccc(NC(=O)Nc3ccccc3)c2)C2CC2)c(=O)o1 (stereo not shown) [Example 212]"
  target-or-system: "HIV-1 protease (Human immunodeficiency virus type 1 group M subtype B, UniProt P04585)"
  units-of-measure: "%"
  comparison-symbol: "="
  inhibition at 1.1 µM: 17.8
- compound: "O=c1oc(CC(O)c2ccccc2Cl)cc(O)c1C(c1ccccc1)C1CC1 (stereo not shown) [Example 151]"
  target-or-system: "HIV-1 protease (Human immunodeficiency virus type 1 group M subtype B, UniProt P04585)"
  units-of-measure: "%"
  comparison-symbol: "="
  inhibition at 1.1 µM: 19.1
- compound: "CC(C)C(CC1CCCOC1)c1cc(O)c(C(c2ccccc2)C2CC2)c(=O)o1 (stereo not shown) [Example 134]"
  target-or-system: "HIV-1 protease (Human immunodeficiency virus type 1 group M subtype B, UniProt P04585)"
  units-of-measure: "%"
  comparison-symbol: "="
  inhibition at 1.1 µM: 83.1
- compound: "CCC(Cc1ccccc1)c1cc(O)c(C(c2cccc(NS(=O)(=O)c3ccc(C(C)(C)C)cc3)c2)C2CC2)c(=O)o1 (stereo not shown) [Example 183]"
  target-or-system: "HIV-1 protease (Human immunodeficiency virus type 1 group M subtype B, UniProt P04585)"
  units-of-measure: "%"
  comparison-symbol: "="
  inhibition at 1.1 µM: 28.2
- compound: "CCC(C1=C(O)CC(Cc2ccccc2)(Cc2ccccc2)OC1=O)c1ccccc1 (stereo not shown) [Example 120]"
  target-or-system: "HIV-1 protease (Human immunodeficiency virus type 1 group M subtype B, UniProt P04585)"
  units-of-measure: "%"
  comparison-symbol: "="
  inhibition at 1.1 µM: 10.1

---

Target: HIV-1 protease (Human immunodeficiency virus type 1 group M subtype B)
Construct: The protease (or proteinase), consisting of only 99 amino acids, is among the smallest enzymes known
Assay: In vitro HIV protease inhibitory assay (HIV Protease FITC Assay)
Assay type: biochemical
Conditions: HIV-1 Dose 0.370 uM; read-out: HIV-1 Protease % Inhib
Recorded measurements of inhibition at 0.37 µM, one per entry
endpoint-name: inhibition at 0.37 µM (%)

- compound: "O=c1oc(CCc2ccc(Br)cc2)cc(O)c1C(c1ccccc1)C1CC1 (centres unmarked) [Example 167]"
  endpoint-name: "inhibition at 0.37 µM"
  comparison-symbol: "<"
  result: 10
- compound: "CC(C)Cc1cc(O)c(C(c2ccccc2)C2CC2)c(=O)o1 (centres unmarked) [Example 75]"
  endpoint-name: "inhibition at 0.37 µM"
  comparison-symbol: "="
  result: 33.8
- compound: "O=c1oc(CCCC(F)(F)F)cc(O)c1C(c1ccccc1)C1CC1 (centres unmarked) [Example 118]"
  endpoint-name: "inhibition at 0.37 µM"
  comparison-symbol: "<"
  result: 10
- compound: "CCC(Cc1ccccc1)c1cc(O)c(C(c2cccc(NS(=O)(=O)c3ccc(OC)cc3)c2)C2CC2)c(=O)o1 (centres unmarked) [Example 185]"
  endpoint-name: "inhibition at 0.37 µM"
  comparison-symbol: "="
  result: 71.4
- compound: "CCC(CC1CCCN(S(=O)(=O)c2ccc(C)cc2)C1)c1cc(O)c(C(c2ccccc2)C2CC2)c(=O)o1 (centres unmarked) [Example 137]"
  endpoint-name: "inhibition at 0.37 µM"
  comparison-symbol: "<"
  result: 10
- compound: "C=CC(C1=C(O)CC2(CCOCC2)OC1=O)c1ccccc1 (centres unmarked) [Example 121]"
  endpoint-name: "inhibition at 0.37 µM"
  comparison-symbol: "<"
  result: 10
- compound: "Cc1ccc(S(=O)(=O)Nc2cccc(C(c3c(O)cc(C(CC4CC4)CC4CCCOC4)oc3=O)C3CC3)c2)cc1 (centres unmarked) [Example 245]"
  endpoint-name: "inhibition at 0.37 µM"
  comparison-symbol: "="
  result: 58
- compound: "CCC(CCc1ccsc1)c1cc(O)c(C(c2ccccc2)C2CC2)c(=O)o1 (centres unmarked) [Example 71]"
  endpoint-name: "inhibition at 0.37 µM"
  comparison-symbol: "="
  result: 46.3

All values here come from patent EP1203770A1.
